Source: paper PMC5540273

Test system: FAK
Construct: gene PTK2
Details: concentration: 1 μM, replicates: in singlicate; n = 1
Reported %Inh values are given for each entry in this list.
State the answer as a number, implicitly in %.

In the examples that follow, each entry is paired with its recorded %Inh.
INSERT INTO measurements (compound, units, endpoint_result) VALUES
  ('Nc1nccc2scc(-c3ccc4c(c3)CCN4C(=O)Cc3ccccc3)c12', '%', 0),
  ('CN(C)c1cc(-c2ccc3c(N)n[nH]c3c2)nc(N)n1', '%', 0),
  ('COc1ccc(-c2cc3c(C)nc(N)nc3n([C@H]3CC[C@H](O)CC3)c2=O)cn1', '%', 0),
  ('Nc1ncnc2c1ncn2-c1cccc(F)c1', '%', 1),
  ('O=C(Nc1n[nH]c2cc(-c3ccccc3F)ccc12)C1CC1', '%', 0);

Ask | Field: %Inh (FAK). Entry: Nc1nc(N)c2nc(-c3ccccc3)[nH]c2n1
Reply | 6

Ask | Please provide the recorded %Inh for Fc1cccc(CSc2nnc(-c3ccc4c(c3)CCO4)o2)c1 , tested on FAK.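 Also: KINOMEscan kinase panel screen.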
Reply | 0
